# Test system: IDO1 (Homo sapiens (Human), UniProt P14902)
# Assay: IDO1 Cellular Assay in Hela Cells Stimulated with IFNγ
# Type: cell-based
# Condition info: about 48 hours, read-out: IDO1 HELA Cell Assay, IC50
# Description: Hela cells were cultured in complete Hela culture medium (90% EMEM, 10% heat-inactivated fetal bovine serum) and expanded to about 1×10^9 cells. […] Frozen Hela cells were thawed and transferred into Hela assay medium (99% complete Hela culture medium, 1% Pen/Strep) with 20 mL medium/vial of cells. […] The cells were then counted and adjusted to a density of 2×10^5 cells/ml in Hela assay medium. […]
# Sequence (P14902 whole entry): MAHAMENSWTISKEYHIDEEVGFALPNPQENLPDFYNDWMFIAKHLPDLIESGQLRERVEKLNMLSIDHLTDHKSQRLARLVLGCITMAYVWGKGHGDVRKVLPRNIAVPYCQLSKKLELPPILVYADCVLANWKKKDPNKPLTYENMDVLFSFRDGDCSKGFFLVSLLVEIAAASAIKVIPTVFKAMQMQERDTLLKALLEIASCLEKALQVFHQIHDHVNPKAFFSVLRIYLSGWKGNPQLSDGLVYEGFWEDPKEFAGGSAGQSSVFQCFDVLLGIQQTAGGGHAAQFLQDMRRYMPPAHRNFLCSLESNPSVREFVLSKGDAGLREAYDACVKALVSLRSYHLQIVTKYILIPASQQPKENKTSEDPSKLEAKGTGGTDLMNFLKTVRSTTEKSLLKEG
Assay endpoint: IC50 (nM)
The reply should contain only the number, in nM.

Here's what some known entries look like.
{"columns": ["Compound", "Test system", "IC50 [nM]"],
 "data": [
  ["CS(=N)(=O)N1CCC(Nc2nonc2/C(=N/O)N[C@H]2Cc3ccc(F)cc32)C1 (single isomer, unassigned) [Example 43]", "IDO1 (Homo sapiens (Human), UniProt P14902)", 157],
  ["CN=S(C)(=O)CCNc1nonc1/C(=N/O)N[C@H]1Cc2ccc(F)cc21 (single isomer, unassigned) [Example 34]", "IDO1 (Homo sapiens (Human), UniProt P14902)", 77],
  ["CS(=O)(/C=C/Nc1nonc1/C(=N/O)N[C@H]1Cc2ccc(F)cc21)=NC#N (stereo partly shown) [Example 15]", "IDO1 (Homo sapiens (Human), UniProt P14902)", 20.1]
]}

Problem: Consider the compound CS(=N)(=O)CCCCOc1nonc1/C(=N/O)N[C@H]1Cc2ccc(F)cc21 (single isomer, unassigned) [Example 33] and give its measured IC50.
Solution: 288

Problem: And the next one, N=S(=O)(CCNc1nonc1/C(=N\O)N[C@@H]1Cc2ccc(F)cc21)C1CC1 (single isomer, unassigned) [Example 68] ?
Solution: 44.6

Problem: And the next one, CS(=N)(=O)CCC(O)CNc1nonc1/C(=N\O)N[C@@H]1Cc2ccc(F)cc21 (single isomer, unassigned) [Example 78] ?
Solution: 74.8

Problem: And the next one, CS(=O)(CCNc1nonc1/C(=N\O)N[C@H]1Cc2ccc(F)cc21)=NCCO (single isomer, unassigned) [Example 57] ?
Solution: 109

* * *

# Test system: IDO1 (Homo sapiens (Human))
# Assay: IDO1 Cellular Assay in Hela Cells Stimulated with IFNγ
# Type: cell-based
# Condition info: about 48 hours, read-out: IDO1 HELA Cell Assay, IC50
# IC50 listing for each entry below
The reply should contain only the number, in nM.

Problem: Consider the compound CS(=N)(=O)N1CCC(Nc2nonc2/C(=N/O)N[C@H]2Cc3ccc(F)cc32)C1 (single isomer, unassigned) [Example 45] and give its measured IC50.
Solution: 85

Problem: And the next one, CS(=N)(=O)C1CC2(CC(Nc3nonc3/C(=N\O)N[C@@H]3Cc4ccc(F)cc43)C2)C1 (single isomer, unassigned) [Example 75] ?
Solution: 40.3

Problem: And the next one, CON=[S@](C)(=O)CCNc1nonc1/C(=N/O)NC1Cc2ccc(F)cc21 (single isomer, unassigned) [Example 91] ?
Solution: 41.8

* * *

# Test system: IDO1 (Homo sapiens (Human), UniProt P14902)
# Assay: IDO1 Enzyme Assay
# Assay type: biochemical
# Condition info: HIS-tagged recombinant IDO1, fluorescence readout
# Sequence (P14902 whole entry, species assumed): as the sequence (P14902 whole entry) above
pIC50: −log10 of the molar value.
Classify by measured pIC50: yes if it is equal to or exceeds 7, no if it is smaller.

Below, 3 molecules whose answers are already recorded.
{"columns": ["Molecule", "Test system", "Assigned class"],
 "data": [
  ["CS(=N)(=O)N1CC2(CC(Nc3nonc3/C(=N\\O)N[C@@H]3Cc4ccc(F)cc43)C2)C1 (single isomer, unassigned) [Example 77]", "IDO1 (Homo sapiens (Human), UniProt P14902)", "yes"],
  ["CS(=N)(=O)CCNC(=O)CNc1nonc1/C(=N/O)N[C@H]1Cc2ccc(F)cc21 (single isomer, unassigned) [Example 13]", "IDO1 (Homo sapiens (Human), UniProt P14902)", "yes"],
  ["CS(=N)(=O)NCCOc1nonc1/C(=N/O)N[C@H]1Cc2ccc(F)cc21 (single isomer, unassigned) [Example 51]", "IDO1 (Homo sapiens (Human), UniProt P14902)", "no"]
]}

Problem: Quick check, pIC50 >= 7? CC(O)CS(=N)(=O)CCNc1nonc1/C(=N\O)N[C@@H]1Cc2ccc(F)cc21 (single isomer, unassigned) [Example 86]
Solution: yes

Problem: And the next one, CN=S(C)(=O)CCNC(=O)CNc1nonc1/C(=N/O)N[C@H]1Cc2ccc(F)cc21 (stereo partly drawn) [Example 40] ?
Solution: no

Problem: And the next one, CS(=N)(=O)CCCCNc1nonc1/C(=N/O)N[C@H]1Cc2ccc(F)cc21 (single isomer, unassigned) [Example 38] ?
Solution: yes
